Origin of values: the supplement of paper PMC11061612

Test system: G-401 (Other Solid Carcinomas);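 note: after 72 h of two-drug dosing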
Test: Bliss excess, mean over the matrix (fraction); higher = more synergy
Record form. Attribute: Bliss excess. Fill in for each entry.
Give bare numbers.

Example cases with answers are listed next.
Report its Bliss excess with G-401 (Other Solid Carcinomas) as the test system: COc1cccc(OCCCN)c1-c1cc(Nc2cnc(C#N)cn2)n[nH]1 [Prexasertib] + CN(C)CCCOc1ccc(-c2ccc3ncc4c(c3c2)n(C2CCOCC2)c(=O)n4C)cn1 [AZD0156] (first compound max 1 µM, 7x7, partner max 1 µM) -0.0265

Report its Bliss excess with G-401 (Other Solid Carcinomas) as the test system: COc1cc2ncnc(Nc3ccc(F)c(Cl)c3)c2cc1OCCCN1CCOCC1 [Gefitinib] + CC(C)n1c(=O)n(C)c2cnc3cc(F)c(-c4ccc(OCCCN5CCCCC5)nc4)cc3c21 [AZD1390] (first compound max 10 µM, 7x7, partner max 0.3 µM) -0.0446

Report its Bliss excess with G-401 (Other Solid Carcinomas) as the test system: NC1(C(=O)N[C@@H](CCO)c2ccc(Cl)cc2)CCN(c2ncnc3[nH]ccc23)CC1 [Capivasertib] + C[C@@H]1COCCN1C2=NC(=NC(=C2)C3(CC3)[S@](=N)(=O)C)C4=C5C=CNC5=NC=C4 [AZD6738] (first compound max 10 µM, 7x7, partner max 10 µM) -0.0856

New cases:
Report its Bliss excess with G-401 (Other Solid Carcinomas) as the test system: C=CCn1c(=O)c2cnc(Nc3ccc(N4CCN(C)CC4)cc3)nc2n1-c1cccc(C(C)(C)O)n1 [AZD1775] + O=C(c1cc(Cc2n[nH]c(=O)c3ccccc23)ccc1F)N1CCN(C(=O)C2CC2)CC1 [Olaparib] (first compound max 1 µM, partner max 10 µM) -0.0999
